The measurements presented in this section are drawn from PubChem BioAssay (NCI).

# Tested on: SK-MEL-28 melanoma
# assayMethodText: NCI tumour cell line growth inhibition, 48 h
The entries below come with measured GI50 values attached.

[
  {
    "compound": "O=c1[nH]c(=O)n(C2CC(O)C(COP(=O)(OCc3ccc([N+](=O)[O-])o3)N(CCCCCl)CC(O)CO)O2)cc1F (stereo not drawn)",
    "testedOn": "SK-MEL-28 melanoma",
    "GI50": "> 100 µM"
  }
]

Req: I would be grateful if you could share the reported GI50 for COc1cc2c(cc1OCCCn1c(-c3ccccn3)nc3ccccc31)N=C[C@@H]1CCCN1C2=O .
Resp: 5.01 µM

Req: I would be grateful if you could share the reported GI50 for COc1cccc(OC(=O)c2ccc(C(F)(F)F)nc2Nc2cc(Cl)ccc2C)c1 .
Resp: 9.26 µM

Req: I would be grateful if you could share the reported GI50 for O=C(Nc1ccc(OCc2nnc(-c3ccc(Cl)cc3)o2)c(F)c1)Nc1ccc(Cl)c(C(F)(F)F)c1 .
Resp: 3.02 µM

Req: I would be grateful if you could share the reported GI50 for COc1ccc2c(c1)N(CCO)C1=C(C(=O)OC1)C2c1cccc(F)c1 (stereo not drawn) .
Resp: 5.59 µM

Req: I would be grateful if you could share the reported GI50 for CCCN(CCS(C)(=O)=O)Cc1ccc(-c2ccc3ncnc(Nc4ccc(OCc5cccc(F)c5)c(Cl)c4)c3c2)o1 .
Resp: > 25 µM

Req: I would be grateful if you could share the reported GI50 for CCOc1ccccc1C(=O)N1CCN(c2cc(Cl)cc(Cl)c2)CC1 .
Resp: 3.55 µM

Req: I would be grateful if you could share the reported GI50 for CC1=C2[C@@H](CC1)[C@]1(C)O[C@@](c3ccccc3)(C[C@H]1OC(=O)CO)[C@H]2OC(=O)/C=C/c1ccccc1 .
Resp: 18.1 µM

====

# Tested on: KM12 colon
# assayMethodText: NCI tumour cell line growth inhibition, 48 h
The entries below come with measured TGI values attached.

Answered cases to consult:
[
  {
    "compound": "O=C(NC1=C(Cl)C(=O)c2ccccc2C1=O)c1ccc(F)cc1",
    "result": "12.5 µM"
  },
  {
    "compound": "O=c1ssc(=Nc2ccccc2)n1-c1ccccc1",
    "result": "> 100 µM"
  },
  {
    "compound": "CCCCCCCCCCCCCCCCCC1=NCCN1CCOC1=C(Cl)C(=O)c2ccccc2C1=O",
    "result": "3.61 µM"
  },
  {
    "compound": "CN=c1ccc2nc3ccc(N)cc3sc-2c1",
    "result": "20.1 µM"
  },
  {
    "compound": "C/C(=C\\c1ccc2ccccc2c1)[N+](=O)[O-]",
    "result": "4.19 µM"
  }
]

Turning to the following compound.
Req: I would be grateful if you could share the reported TGI for COc1ccccc1-c1cc(=O)c2cc(C)cnc2[nH]1 .
Resp: > 100 µM

====

The entries below come with measured TGI values attached.
# System: OVCAR-3 ovarian
# assayMethodText: NCI tumour cell line growth inhibition, 48 h

Req: I would be grateful if you could share the reported TGI for CCOC(=O)c1c(C)nc2c1c(CN(C)C)c(O)c1[nH]c(C)c(C)nc12 .
Resp: 85.7 µM

Req: I would be grateful if you could share the reported TGI for O=C(CSc1nnc(Cc2ccccc2)o1)Nc1ccccc1 .
Resp: > 100 µM

Req: I would be grateful if you could share the reported TGI for COC(=O)[C@@H]1[C@H](OC(C)=O)CCC2[C@@]3(C[C@@H](c4ccoc4)O[C@@H]3OC)[C@H](C)CC[C@]21C(=O)OC (stereo partly specified) .
Resp: > 25 µM

Req: I would be grateful if you could share the reported TGI for COC(=O)c1onc(-c2c(OC)cc(OC)cc2OC)c1C(=O)OC .
Resp: > 100 µM

Req: I would be grateful if you could share the reported TGI for Cc1cccc(C)c1NC(=O)/C(=N/NC(N)=S)C(C)C(=O)c1ccc(Cl)cc1 (stereo unspecified) .
Resp: > 100 µM

Req: I would be grateful if you could share the reported TGI for O=C(O)c1cc2c(ncc3c(=O)n(-c4ccccc4)[nH]c32)s1 .
Resp: > 100 µM

====

# Tested on: MOLT-4 leukemia
# assayMethodText: NCI tumour cell line growth inhibition, 48 h
endpointLabel: TGI (µM)
Use µM as the unit, but write only the number.

[
  {
    "compound": "Cc1[nH]c2ccccc2c1C(=O)CC1(O)C(=O)Nc2c(Cl)cc(Cl)cc21 (stereo not drawn)",
    "unit": "µM",
    "TGI": 55.1
  }
]

Req: I would be grateful if you could share the reported TGI for O=C(NC1=C(Cl)C(=O)c2ccccc2C1=O)c1ccc(F)cc1 .
Resp: 7.13

====

# Tested on: SK-MEL-5 melanoma
# assayMethodText: NCI tumour cell line growth inhibition, 48 h; in the data active means GI50 below about 0.43 µM; inactive means the rest
The reply should be one of these categories: active, inactive

[
  {
    "compound": "CC(=O)/C=C/c1cn(C(=O)OC(C)(C)C)c2ccc(Br)cc12",
    "label": "inactive"
  },
  {
    "compound": "COc1ccccc1-c1cc(=O)c2cc(C)cnc2[nH]1",
    "label": "inactive"
  },
  {
    "compound": "O=C(Nc1ccc(OCc2nnc(-c3ccc(Cl)cc3)o2)c(F)c1)Nc1ccc(Cl)c(C(F)(F)F)c1",
    "label": "inactive"
  },
  {
    "compound": "COc1ccc2c(c1)N(CCO)C1=C(C(=O)OC1)C2c1cccc(F)c1 (stereo not given)",
    "label": "inactive"
  },
  {
    "compound": "COc1cc2c(cc1OCCCn1c(-c3ccccn3)nc3ccccc31)N=C[C@@H]1CCCN1C2=O",
    "label": "inactive"
  }
]

Req: Each compound tested received a call. Report the one for COc1cc(N2C(=O)[C@H](O)C2c2ccc(SC)cc2)cc(OC)c1OC (stereo not given in full) .
Resp: active

====

# Test system: OVCAR-4 ovarian
# assayMethodText: NCI tumour cell line growth inhibition, 48 h
The entries below come with measured TGI values attached.

Answered cases to consult:
[
  {
    "molecule": "COc1cc2c(cc1OC)C1C=NC(C2)c2cc(OC)c(OC)cc21 (stereo not given)",
    "testedOn": "OVCAR-4 ovarian",
    "TGI": "> 100 µM"
  },
  {
    "molecule": "COc1ccc(-c2cc(-c3ccc(C)cc3)nc3nc(=S)[nH]c(N)c23)cc1",
    "testedOn": "OVCAR-4 ovarian",
    "TGI": "> 100 µM"
  },
  {
    "molecule": "O=S(=O)(c1ccc(Cl)cc1)C(Cl)(Cl)Cl",
    "testedOn": "OVCAR-4 ovarian",
    "TGI": "> 63.3 µM"
  },
  {
    "molecule": "O=C(OCc1ccc2ccccc2n1)c1cn(C2CC2)c2cc(N3CCN(Cc4ccc5ccccc5n4)CC3)c(F)cc2c1=O",
    "testedOn": "OVCAR-4 ovarian",
    "TGI": "> 100 µM"
  }
]

Req: I would be grateful if you could share the reported TGI for CN(N=O)C(=O)ON1C(=O)CCC1=O .
Resp: > 100 µM

====

# Test system: SW-620 colon
# assayMethodText: NCI tumour cell line growth inhibition, 48 h; in the data active = GI50 below about 0.43 µM; inactive = the rest
The reply should be one of these categories: TRUE = active, FALSE = inactive

Solved entries:
[
  {
    "compound": "CCCCCCCCCCCCCCCCCC[n+]1ccc2c(C)c3c(c(C)c2c1)c1cc(O)ccc1n3CC",
    "label": "FALSE"
  },
  {
    "compound": "COc1ccc(-c2cc(-c3ccc(C)cc3)nc3nc(=S)[nH]c(N)c23)cc1",
    "label": "FALSE"
  },
  {
    "compound": "O=C(O)CN1CCN(CC(=O)O)CC(=O)[O][Hg][O]C(=O)C1",
    "label": "FALSE"
  },
  {
    "compound": "O=C(/C=C\\c1cccc([N+](=O)[O-])c1)/C=C/c1cccc([N+](=O)[O-])c1",
    "label": "FALSE"
  },
  {
    "compound": "CC1=C2[C@@H](CC1)[C@]1(C)O[C@@](c3ccccc3)(C[C@H]1OC(=O)CO)[C@H]2OC(=O)/C=C/c1ccccc1",
    "label": "FALSE"
  }
]

Req: Each compound tested received a call. Report the one for CC(C)NCCCn1c(Sc2cc3c(cc2I)OCO3)nc2c(N)ncnc21 .
Resp: TRUE

Req: Each compound tested received a call. Report the one for COc1cc(N2C(=O)[C@H](O)C2c2ccc(SC)cc2)cc(OC)c1OC (stereo not given in full) .
Resp: TRUE

Req: Each compound tested received a call. Report the one for O=C1OCC2=C1C(c1ccc(Cl)c(Cl)c1)c1cc3c(cc1N2CCO)OCCO3 (stereo not given) .
Resp: TRUE

Req: Each compound tested received a call. Report the one for CO/N=C(\COc1ccc2c(c1)[nH]c1ccccc12)c1ccc(F)cc1 .
Resp: FALSE

Req: Each compound tested received a call. Report the one for Fc1ccc(/C=N/n2c(-c3ccc(F)c(Cl)c3)nn(CNc3ccccc3C(F)(F)F)c2=S)cc1 .
Resp: FALSE

Req: Each compound tested received a call. Report the one for CCc1ccc2c(c1)N(CCO)C1=C(C(=O)OC1)C2c1cccc(Br)c1 (stereo not given) .
Resp: TRUE

Req: Each compound tested received a call. Report the one for OCC1OC(n2cnc3c(N/N=C\c4ccccn4)ncnc32)C(O)C1O (stereo not given) .
Resp: TRUE

Req: Each compound tested received a call. Report the one for COc1ccc2c(c1)N(CCO)C1=C(C(=O)OC1)C2c1cccc(F)c1 (stereo not given) .
Resp: TRUE

Req: Each compound tested received a call. Report the one for O=c1[nH]c(=O)n(C2CC(O)C(COP(=O)(OCc3ccc([N+](=O)[O-])o3)N(CCCCCl)CC(O)CO)O2)cc1F (stereo not given) .
Resp: TRUE

Req: Each compound tested received a call. Report the one for c1cnn2ncc(-c3ccnc(NCCCN4CCOCC4)n3)c2c1 .
Resp: FALSE
